# SYSTEM_NAME: hamster Abcb1a Pgp (Cricetulus griseus, UniProt P21448)
# Sequence (P21448 whole entry): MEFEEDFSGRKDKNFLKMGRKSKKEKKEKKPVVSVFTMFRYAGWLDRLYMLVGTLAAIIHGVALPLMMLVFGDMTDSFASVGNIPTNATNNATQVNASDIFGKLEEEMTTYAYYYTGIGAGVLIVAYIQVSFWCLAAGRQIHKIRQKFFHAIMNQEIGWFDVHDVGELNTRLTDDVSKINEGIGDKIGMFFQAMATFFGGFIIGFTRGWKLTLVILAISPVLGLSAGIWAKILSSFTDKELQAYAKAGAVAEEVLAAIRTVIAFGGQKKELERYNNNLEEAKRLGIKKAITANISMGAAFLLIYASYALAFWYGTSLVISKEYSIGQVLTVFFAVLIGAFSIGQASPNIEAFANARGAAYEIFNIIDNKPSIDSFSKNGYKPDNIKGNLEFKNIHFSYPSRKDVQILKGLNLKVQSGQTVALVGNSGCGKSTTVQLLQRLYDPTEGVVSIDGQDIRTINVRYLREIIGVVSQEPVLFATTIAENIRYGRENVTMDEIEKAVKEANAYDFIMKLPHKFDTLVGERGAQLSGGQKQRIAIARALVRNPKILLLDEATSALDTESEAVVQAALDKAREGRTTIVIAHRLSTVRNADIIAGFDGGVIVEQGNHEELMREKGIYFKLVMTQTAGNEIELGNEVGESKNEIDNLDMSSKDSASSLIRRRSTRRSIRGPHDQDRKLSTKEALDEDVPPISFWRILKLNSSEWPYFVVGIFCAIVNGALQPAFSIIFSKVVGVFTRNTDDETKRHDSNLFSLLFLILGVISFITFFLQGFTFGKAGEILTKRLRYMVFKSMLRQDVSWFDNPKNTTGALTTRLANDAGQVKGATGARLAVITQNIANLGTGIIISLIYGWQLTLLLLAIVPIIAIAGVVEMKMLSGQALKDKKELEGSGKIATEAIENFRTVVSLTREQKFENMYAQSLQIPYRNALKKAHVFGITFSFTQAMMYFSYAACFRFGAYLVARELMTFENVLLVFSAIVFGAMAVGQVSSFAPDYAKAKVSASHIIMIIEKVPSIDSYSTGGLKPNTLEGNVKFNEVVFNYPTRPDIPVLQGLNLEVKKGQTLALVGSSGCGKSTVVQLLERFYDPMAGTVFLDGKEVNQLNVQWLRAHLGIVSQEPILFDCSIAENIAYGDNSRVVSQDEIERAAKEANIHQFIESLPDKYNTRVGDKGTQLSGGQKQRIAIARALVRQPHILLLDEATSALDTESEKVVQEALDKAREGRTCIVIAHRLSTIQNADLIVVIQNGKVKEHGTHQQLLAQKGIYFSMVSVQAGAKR
# PROCEDURE_DETAILS: biochemical
# Assay type: binding
# EXPERIMENTAL_PARAMETERS: fluorescence quenching of purified Pgp in 2 mM CHAPS
METRIC: Kd (nM)
Give bare numbers, in nM.

# input Looking for the measured Kd of O[C@@H](COc1cccc2ncccc12)CN1CCN([C@@H]2c3ccccc3[C@@H]3[C@H](c4ccccc42)C3(F)F)CC1 , can you help?
# output 55

----------
# SYSTEM_NAME: human MDR1 Pgp (Homo sapiens, UniProt P08183)
# Sequence (P08183 whole entry): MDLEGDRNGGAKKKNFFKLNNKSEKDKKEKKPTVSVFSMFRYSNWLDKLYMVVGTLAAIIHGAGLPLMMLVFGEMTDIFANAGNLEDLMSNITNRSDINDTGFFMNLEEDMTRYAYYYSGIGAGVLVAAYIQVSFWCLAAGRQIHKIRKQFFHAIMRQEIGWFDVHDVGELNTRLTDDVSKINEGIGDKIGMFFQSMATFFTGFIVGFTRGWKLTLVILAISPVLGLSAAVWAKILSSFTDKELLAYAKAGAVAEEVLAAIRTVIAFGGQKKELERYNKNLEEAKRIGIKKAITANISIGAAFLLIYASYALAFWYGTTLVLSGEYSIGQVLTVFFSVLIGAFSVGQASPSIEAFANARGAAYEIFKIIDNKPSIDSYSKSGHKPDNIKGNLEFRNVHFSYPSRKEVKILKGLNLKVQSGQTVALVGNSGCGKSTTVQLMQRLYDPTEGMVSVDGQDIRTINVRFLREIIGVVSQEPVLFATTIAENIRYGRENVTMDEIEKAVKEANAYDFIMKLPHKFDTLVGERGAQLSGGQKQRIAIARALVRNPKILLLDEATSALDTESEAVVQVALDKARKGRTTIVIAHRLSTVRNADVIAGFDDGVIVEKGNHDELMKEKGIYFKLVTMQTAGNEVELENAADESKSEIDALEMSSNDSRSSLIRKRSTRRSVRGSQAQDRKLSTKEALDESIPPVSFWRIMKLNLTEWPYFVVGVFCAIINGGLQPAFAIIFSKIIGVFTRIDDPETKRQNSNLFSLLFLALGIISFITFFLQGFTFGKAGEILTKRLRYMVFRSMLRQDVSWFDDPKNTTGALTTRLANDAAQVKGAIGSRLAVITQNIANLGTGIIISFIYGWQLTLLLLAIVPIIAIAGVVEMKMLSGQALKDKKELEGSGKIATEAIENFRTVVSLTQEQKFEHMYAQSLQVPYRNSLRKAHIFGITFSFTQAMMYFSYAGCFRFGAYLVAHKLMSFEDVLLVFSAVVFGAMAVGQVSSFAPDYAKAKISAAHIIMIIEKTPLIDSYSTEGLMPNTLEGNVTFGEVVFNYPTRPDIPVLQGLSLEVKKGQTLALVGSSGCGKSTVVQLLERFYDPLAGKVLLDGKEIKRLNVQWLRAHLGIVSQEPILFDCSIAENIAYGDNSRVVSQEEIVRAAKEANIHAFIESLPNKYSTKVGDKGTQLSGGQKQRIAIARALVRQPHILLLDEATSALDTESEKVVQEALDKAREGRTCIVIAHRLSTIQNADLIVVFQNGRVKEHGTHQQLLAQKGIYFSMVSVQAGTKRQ
# PROCEDURE_DETAILS: Inhibition of net [3H]digoxin transport in LLC-MDR1 cell monolayers
Exam item: assign yes to entries whose IC50 is below 20 µM and no to entries at or above 20 µM. Note that a value of exactly 20 µM receives no.

Observe how each entry below is paired with its result.
{"columns": ["MOLECULE", "ASSIGNED_LABEL"],
 "data": [
  ["COc1ccccc1OCC(O)CN1CCN(CC(=O)Nc2c(C)cccc2C)CC1 (stereo not drawn) [Ranolazine]", "no"],
  ["Cc1c(C)c2c(c(C)c1O)CCC(C)(COc1ccc(CC3SC(=O)NC3=O)cc1)O2 (stereo not drawn) [Troglitazone]", "yes"],
  ["COC(=O)C1=C(C)NC(C)=C(C(=O)OC(C)C)C1c1cccc2nonc12 (stereo not drawn) [Isradipine]", "no"],
  ["COc1ccccc1OCCNCC(O)COc1cccc2[nH]c3ccccc3c12 (stereo not drawn) [Carvedilol]", "no"],
  ["CCCc1nc2c(C)cc(-c3nc4ccccc4n3C)cc2n1Cc1ccc(-c2ccccc2C(=O)O)cc1 [Telmisartan]", "yes"]
]}

Now for a further molecule.
# input Find out if reported IC50 for C[C@H](CS)C(=O)N1CCC[C@H]1C(=O)O [Captopril] is less than 20 µM
# output no
